# targetEntity: CATPO (Scytalidium thermophilum (Humicola insolens))
# Sequence (M4GGR5 entry or part of it): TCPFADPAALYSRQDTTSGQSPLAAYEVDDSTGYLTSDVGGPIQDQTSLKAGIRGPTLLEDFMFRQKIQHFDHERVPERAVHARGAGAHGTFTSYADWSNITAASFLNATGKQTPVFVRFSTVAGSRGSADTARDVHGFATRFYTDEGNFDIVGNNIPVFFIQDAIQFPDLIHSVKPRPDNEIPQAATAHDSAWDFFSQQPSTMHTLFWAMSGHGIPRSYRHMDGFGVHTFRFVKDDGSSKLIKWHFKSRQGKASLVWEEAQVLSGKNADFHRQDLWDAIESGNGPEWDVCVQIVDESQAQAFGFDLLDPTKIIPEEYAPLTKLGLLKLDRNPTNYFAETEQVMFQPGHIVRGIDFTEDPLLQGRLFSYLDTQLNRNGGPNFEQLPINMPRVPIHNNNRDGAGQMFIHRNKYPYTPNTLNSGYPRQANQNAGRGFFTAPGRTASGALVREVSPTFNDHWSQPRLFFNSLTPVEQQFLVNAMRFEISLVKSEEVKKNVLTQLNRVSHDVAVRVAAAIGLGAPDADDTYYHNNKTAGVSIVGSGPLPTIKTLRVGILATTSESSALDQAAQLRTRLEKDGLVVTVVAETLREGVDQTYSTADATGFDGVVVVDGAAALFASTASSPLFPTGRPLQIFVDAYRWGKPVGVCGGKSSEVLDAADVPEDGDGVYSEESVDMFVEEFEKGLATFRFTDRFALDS
# testName: Inhibition of catechol oxidation
# Assay type: biochemical
# setupConditions: catechol oxidation by CATPO; catechol 1 to 100 mM; read-out: K i
observationType: Ki
Don't forget the unit after the number, please.

-- ask # query: Ki of entry [F-].[Na+] [NaF, sodium fluoride]
-- reply 0.67 mM

-- ask Can you handle [N-]=[N+]=[N-].[Na+] [Sodium azide, sodium azide] next?
-- reply 42 mM

-- ask Now give it for CC(C)(C)c1ccc(O)c(O)c1 too.
-- reply 2.1 mM

-- ask Record: Nc1nc[nH]n1
-- reply 21 mM

-- ask Another: CCn1c(=NN=c2sc3cc(S(=O)(=O)O)ccc3n2CC)sc2cc(S(=O)(=O)O)ccc21
-- reply 11 mM

-- ask Let us now turn to Cc1ccc(O)c(O)c1
-- reply 1.5 mM

-- ask Follow-up entry: Oc1cccc(O)c1O
-- reply 4.2 mM

====

The reader will find reported pKi values listed item by item below.
# targetEntity: CATPO T188I variant (Scytalidium thermophilum (Humicola insolens), UniProt M4GGR5, T207I)
# testName: biochemical
On this scale, pKi is minus log10 of a concentration expressed in M (mol/L).

Please review the following examples before continuing.
• CC(C)(C)c1ccc(O)c(O)c1 [1,4-tert-Butylcatechol, 4-tert-butylcatechol] = 1.28
• Oc1ccc(O)cc1 [Hydroquinone, p-hydroquinone] = 1.15
• Nc1nc[nH]n1 [3TR, 3-amino-1,2,4-triazole] = 1.38
• O=C(NO)c1ccccc1O [Salicylhydroxamic acid, salicylhydroxamic acid] = 2.27
• Cc1ccc(O)c(O)c1 [4-Methylcatechol, 4-methylcatechol] = 1.40

Please find the next compound below.
-- ask I am curious: what pKi value has been reported for Oc1cccc(O)c1O [Pyrogallol, pyrogallol] ?
-- reply 1.21

====

# targetEntity: CATPO T188F variant (Scytalidium thermophilum (Humicola insolens), UniProt M4GGR5, T207F)
# Assay type: biochemical
# setupConditions: pH 7.0 (ABTS pH 5.0), 60°C
# key: entry, value: K m
Respond numerically; units are mM and should not be typed.

Answered cases to consult:
- CCn1c(=NN=c2sc3cc(S(=O)(=O)O)ccc3n2CC)sc2cc(S(=O)(=O)O)ccc21 [ABTS]: 45
- Oc1cccc(O)c1O [Pyrogallol, pyrogallol]: 37
- Cc1ccc(O)c(O)c1 [4-Methylcatechol, 4-methylcatechol]: 32
- Oc1ccc(O)cc1 [Hydroquinone, p-hydroquinone]: 42
- Oc1ccccc1O [Catechol, catechol]: 30

As a next step, examine the compound that follows.
-- ask Could you share which K m value was measured for CC(C)(C)c1ccc(O)c(O)c1 [1,4-tert-Butylcatechol, 4-tert-butylcatechol] ?
-- reply 34

====

# targetEntity: CATPO T188D variant (Scytalidium thermophilum (Humicola insolens), UniProt M4GGR5, T207D)
# Format: biochemical
Marks after values point to notes of the source that are not given here.
Parameter k cat/K m: see the listing below.

Here are 5 molecules together with their reported answers.
* CC(C)(C)c1ccc(O)c(O)c1 | 6590 ± 150 s^−1 M^−1 (×10^2)
* CCn1c(=NN=c2sc3cc(S(=O)(=O)O)ccc3n2CC)sc2cc(S(=O)(=O)O)ccc21 | 200 ± 25 s^−1 M^−1 (×10^2)
* Oc1cccc(O)c1O | 5710 ± 200 s^−1 M^−1 (×10^2)
* Oc1ccc(O)cc1 [Hydroquinone, p-hydroquinone] | 480 ± 64 s^−1 M^−1 (×10^2)
* Cc1ccc(O)c(O)c1 | 7620 ± 100 s^−1 M^−1 (×10^2)

# next molecule below
-- ask k cat/K m for Oc1ccccc1O ?
-- reply 8900 ± 70 s^−1 M^−1 (×10^2)
